# System: PCTK2
# Construct: gene CDK17
# experimental conditions: concentration: 1 μM, replicates: in singlicate; n = 1;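 note: KINOMEscan kinase panel screen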
test readout: %Inh (%)
Output spec: scalar in %, unitless text.

Indicate the recorded %Inh value for this molecule: Cl.c1ccc(-c2ccc3c(Nc4ccc5[nH]ccc5c4)ccnc3c2)nc1 [GW440138]
6

Answer with reported %Inh of Cc1cccc(Nc2nc(N[C@H]3CCNC3)ncc2C(N)=O)c1.Cl [GSK2197149]
7

Give reported %Inh value for Cl.c1ccc(-c2ccc3c(Nc4ccc5[nH]ncc5c4)ccnc3c2)nc1 [GW440137]
14

Annotate the molecule Cc1ccc(C(=O)N2CC[C@@H](O)C2)cc1-n1c(C)cc(OCc2ccc(F)cc2F)c(Br)c1=O with its measured %Inh.
0

# return recorded %Inh for entry Cc1ccc(F)c(C(=O)Nc2cccc(-c3nn4ccccc4c3-c3ccnc(Nc4cccc(F)c4)n3)c2)c1F [GSK361061]
0

---

# Tested on: PRKCE
# experimental conditions: concentration: 1 μM, replicates: in singlicate; n = 1
Assign %Inh to each entry below.
Expressed in %, but write only the number.

Look up and report measured %Inh for this entry: CN(c1ccc(NC(=O)Nc2cc(C(F)(F)F)ccc2F)cc1)c1ccnc(Nc2ccc(S(N)(=O)=O)cc2)n1
0

Dear colleague, please send me the reported %Inh for Cl.NC(=O)c1cccc(Nc2nccc(Nc3ccc(Oc4c(Cl)cccc4Cl)c(Cl)c3)n2)c1 when you can.
0

Kindly indicate its recorded %Inh. Item: Cc1cccc(NC(=O)Nc2ccc(Oc3ncnc4ccn(C)c34)cc2)c1
7

---

Answer each item with its documented %Inh.
# System: p38-delta
# experimental conditions: concentration: 1 μM, replicates: in singlicate; n = 1
Entry rule: numbers only, all in %.

Return reported %Inh. Input molecule: O=C(Nc1cccc(-c2nn3ccccc3c2-c2ccnc(Nc3cccc(F)c3)n2)c1)c1c(F)ccc(F)c1Cl
36

Retrieve %Inh measured for O=C(Nc1cccc(Oc2ccc3nc(NC(=O)C4CC4)cn3n2)c1)c1ccccc1C(F)(F)F and print it.
17

Answer with reported %Inh of O=C(Nc1n[nH]c2cc(-c3ccoc3)ccc12)C1CC1
0

Consider the molecule O=C(Nc1cccc(-c2nn3ccccc3c2-c2ccnc(Nc3cccc(C(F)(F)F)c3)n2)c1)c1c(F)cccc1F and give its recorded %Inh.
24

Give reported %Inh value for COc1cc(Nc2ncc3c(C)nc(-c4cc5ccccc5[nH]4)n3n2)cc(OC)c1OC
0

Give a short answer stating reported %Inh for Cl.c1ccc(-c2ccc3c(Nc4ccc5[nH]ncc5c4)ccnc3c2)nc1 .
38

Report measured %Inh; entry is Nc1ncc(-c2ccc3nccc(-c4ccncc4)c3c2)cc1S(=O)(=O)N1CCOCC1
0

Name the recorded %Inh of the item Cc1ccc(C)c(NC(=O)NC2CCN(c3ccnc(Nc4ccc(F)cc4)n3)C2)c1 (stereo not shown) in your answer.
45

Specify %Inh for O=C(Nc1ccccc1F)NC1CCN(c2ccnc(Nc3ccc(F)cc3)n2)CC1 and stop.
45

Return value of %Inh for input CC(C)(C)c1ccc2nccc(Nc3cccc(O)c3)c2c1 , no commentary.
12

Quote %Inh reported for COc1ccc(-c2coc3ccc(-c4nnc(SCc5ccc(OC)c(C(F)(F)F)c5)o4)cc23)cc1 please.
6

Give the value of %Inh reported for the following: CC(=O)Nc1nc2cnc(Nc3cc(NC(=O)c4cccc(C5(C#N)CC5)c4Cl)ccc3C)nc2s1
17

Answer with the recorded %Inh of Cl.Cl.NCC(NCc1ccc(-c2ccnc3[nH]ccc23)s1)c1ccccc1 (stereo not shown) only.
3

Determine its reported %Inh: COc1ccc(Nc2nccc(N3CCC(NC(=O)Nc4cccc(OC)c4)C3)n2)cc1 (stereo not shown)
29

Could you please provide reported %Inh for c1ccc(-c2cnc3nccnn23)cc1 ? Thanks!
20

Read the entry O=C(O)C(F)(F)F.O=C(O)C(F)(F)F.O=c1[nH]ccc2nc(N[C@@H]3CCCNC3)nc(Nc3ccc(S(=O)(=O)N4CCOCC4)cc3)c12 and write its reported %Inh.
57

Give me measured %Inh, please, for this molecule: COc1cccc(C(=O)Nc2cccc(Oc3ccc4nc(NC(=O)C5CC5)cn4n3)c2)c1
32

Tell me %Inh reported for CCCCc1nn2ncccc2c1-c1ccnc(Nc2ccc(N3CCN(C)CC3)cc2)n1
21

Name the recorded %Inh of the item COc1cc(Nc2nccc(-c3c(-c4cccc(NC(=O)c5c(F)cccc5F)c4)nn4ccccc34)n2)cc(OC)c1OC in your answer.
43

Fill in %Inh for record COc1cccc(-c2ccc3c(NC(=O)C4CC4)n[nH]c3n2)c1
40

Could you please provide reported %Inh for COc1ccc(CNC(=O)NC2CCN(c3ccnc(Nc4ccc(F)cc4)n3)CC2)cc1 ? Thanks!
29

Give recorded %Inh. COc1cc(Nc2nccc(N3CCC(NC(=O)c4cc5ccccc5s4)C3)n2)cc(OC)c1OC (stereo not shown)
15

Indicate its recorded %Inh; the molecule in question is Cn1cc(-c2ccc3c(c2)CCN3C(=O)Cc2cccc(F)c2)c2c(N)ncnc21
52

Supply measured %Inh of CN(c1ccc(NC(=O)Nc2cc(C(F)(F)F)ccc2F)cc1)c1ccnc(Nc2ccc(S(N)(=O)=O)cc2)n1 in your reply.
91.7

Supply measured %Inh of O=C(Nc1n[nH]c2nc(-c3ccc(O)cc3)ccc12)C1CC1 in your reply.
0

Identify the reported %Inh for the following entry. Cc1cccc(NC(=O)Nc2ccc(Oc3ncnc4ccn(C)c34)cc2)c1
0

Give reported %Inh value for O=C(Nc1cccc(-c2nn3ncccc3c2-c2ccnc(Nc3ccccc3)n2)c1)c1c(F)cccc1F
77

State, in one line, measured %Inh of Cc1cccc(Nc2nc(N[C@H]3CCNC3)ncc2C(N)=O)c1.Cl
19

Values were extracted from paper PMC5540273.
